# Assay name: Volume of distribution at steady state in iv dosed dog
# Type: ADME, organism-based, Canis lupus familiaris
# Run parameters: in vivo, read-out: Vdss
Measurement label: Vd (L/kg)
Give bare numbers, in L/kg.

# molecule `CC(C)Oc1nc2nc(C34COC(C)(C3)C4)cn2cc1C(=O)Nc1cccn(C2CC2)c1=O` ; its Vd = 1.4

====

# Assay name: Unbound brain-to-plasma concentration ratio in rat at iv dosed for 4 to 24 hrs by LC-MS/MS analysis
# Assay type: ADME, organism-based
# Run parameters: time 4-24 hrs, read-out: K(p,uu,brain)
Measurement label: Kp uu

Provide Kp uu for all items below, preserving their order.
1. CC(C)Oc1nc2nc(C34COC(C)(C3)C4)cn2cc1C(=O)Nc1cccn([C@H]2C[C@H]2C)c1=O
2. CC(C)Oc1nc2nc(C34COC(C)(C3)C4)cn2cc1C(=O)Nc1cccn(C2CC2)c1=O
3. COCC12CC(c3cn4cc(C(=O)Nc5cccn(C6CC6)c5=O)c(OC(C)C)nc4n3)(CO1)C2

0.4
0.7
0.5

====

# Assay name: Intrinsic clearance in human Hepatocyte
# Type: ADME, cell-based
# Run parameters: hepatocytes, read-out: CLH
Measurement label: CLint scaled (mL/min/kg)
One number for each entry, in mL/min/kg.

Measured CLint scaled, `CC(C)Oc1nc2nc(C34COC(C)(C3)C4)cn2cc1C(=O)Nc1cccn(C2CC2)c1=O` : 5.1

====

# Assay name: Clearance in rat plasma at iv dosed for 4 to 24 hrs by LC-MS/MS analysis
# Format: ADME, organism-based
# Run parameters: time 4-24 hrs
Assignment: determine reported clearance for the given molecules.

Worked examples follow.
[
  {
    "Molecule": "CC(C)Oc1nc2nc([C@@]34CC[C@@](C)(C3)OC4)cn2cc1C(=O)Nc1cccn(C2CC2)c1=O (single isomer, unassigned)",
    "clearance": "36 mL/min/kg"
  },
  {
    "Molecule": "COC[C@@]12CC[C@@](c3cn4cc(C(=O)Nc5cccn(C6CC6)c5=O)c(OC(C)C)nc4n3)(CO1)C2",
    "clearance": "17 mL/min/kg"
  },
  {
    "Molecule": "CC(C)Oc1nc2nc(C34CCC(C)(C3)OC4)cn2cc1C(=O)Nc1cccn([C@H]2C[C@H]2F)c1=O (single isomer, unassigned)",
    "clearance": "12.7 mL/min/kg"
  },
  {
    "Molecule": "COCC12CC(c3cn4cc(C(=O)Nc5cccn(C6CC6)c5=O)c(OC(C)C)nc4n3)(CO1)C2",
    "clearance": "20.8 mL/min/kg"
  },
  {
    "Molecule": "CC(C)Oc1nc2nc(C34COC(CF)(C3)C4)cn2cc1C(=O)Nc1cccn(C2CC2)c1=O",
    "clearance": "9.6 mL/min/kg"
  },
  {
    "Molecule": "CC(C)Oc1nc2nc(C34COC(C3)C4)cn2cc1C(=O)Nc1cccn(C2CC2)c1=O",
    "clearance": "8 mL/min/kg"
  }
]

Note to self: clearance recorded for `COC[C@@]12CC[C@@](c3cn4cc(C(=O)Nc5cccn([C@H]6C[C@H]6F)c5=O)c(OC(C)C)nc4n3)(CO1)C2` was 33 mL/min/kg

====

# Assay name: AUCinfinity in mouse at iv administration
# Assay type: ADME, organism-based
# Run parameters: in vivo
Measurement label: AUC(0-inf)

The value of AUC(0-inf) measured for the compound `CC(C)Oc1nc2nc(C34COC(C)(C3)C4)cn2cc1C(=O)Nc1cccn(C2CC2)c1=O` turned out to be 1020 ng·h/mL

====

# Assay name: Half life in rat at iv administration
# Type: ADME, organism-based
# Run parameters: in vivo
Measurement label: half-life (h)
Answers are plain numbers, in h.

compound `CC(C)Oc1nc2nc(C34COC(C)(C3)C4)cn2cc1C(=O)Nc1cccn(C2CC2)c1=O` , half-life observed: 2.5

====

# Assay name: Volume of distribution at steady state in Cynomolgus monkey at iv administration
# Format: ADME, organism-based, Macaca fascicularis
# Run parameters: in vivo, read-out: Vdss
Measurement label: Vd (L/kg)
Numbers only, in L/kg.

Reported Vd of `CC(C)Oc1nc2nc(C34COC(C)(C3)C4)cn2cc1C(=O)Nc1cccn(C2CC2)c1=O` : 0.9

====

# Assay name: Clearance in rat at iv administration
# Format: ADME, organism-based
# Run parameters: in vivo
Measurement label: clearance (mL/min/kg)
Give bare numbers, in mL/min/kg.

Reported clearance ( `CC(C)Oc1nc2nc(C34COC(C)(C3)C4)cn2cc1C(=O)Nc1cccn(C2CC2)c1=O` ) = 14.2

====

# Assay name: AUCinfinity in iv dosed dog
# Format: ADME, organism-based, Canis lupus familiaris
# Run parameters: in vivo
Measurement label: AUC(0-inf) (ng·h/mL)
Answers are plain numbers, in ng·h/mL.

The measured AUC(0-inf) associated with `CC(C)Oc1nc2nc(C34COC(C)(C3)C4)cn2cc1C(=O)Nc1cccn(C2CC2)c1=O` reads 1400

====

# Assay name: Oral bioavailability in dog
# Type: ADME, organism-based, Canis lupus familiaris
# Run parameters: in vivo
Measurement label: bioavailability (%)
One number for each entry, in %.

Looking up `CC(C)Oc1nc2nc(C34COC(C)(C3)C4)cn2cc1C(=O)Nc1cccn(C2CC2)c1=O` , I found its bioavailability recorded as 89

====

# Assay name: Tmax in mouse at po administration
# Type: ADME, organism-based
# Run parameters: in vivo
Measurement label: Tmax (min)
One number for each entry, in min.

Reported Tmax ( `CC(C)Oc1nc2nc(C34COC(C)(C3)C4)cn2cc1C(=O)Nc1cccn(C2CC2)c1=O` ) = 15

====

What Kp uu was measured for each of the following?
# Assay name: Unbound brain-to-plasma concentration ratio in rat at iv dosed for 4 to 24 hrs by LC-MS/MS analysis
# Format: ADME, organism-based
# Run parameters: time 4-24 hrs, read-out: K(p,uu,brain)
Numbers only.

Some solved cases for reference:
[
  {
    "Molecule": "CC(C)Oc1nc2nc(C34COC(CF)(C3)C4)cn2cc1C(=O)Nc1cccn(C2CC2)c1=O",
    "Measurement label": "Kp uu",
    "Result": 0.2
  },
  {
    "Molecule": "CC(C)Oc1nc2nc(C34COC(C)(C3)C4)cn2cc1C(=O)Nc1cccn([C@H]2C[C@H]2F)c1=O (single isomer, unassigned)",
    "Measurement label": "Kp uu",
    "Result": 0.3
  },
  {
    "Molecule": "COC[C@@]12CC[C@@](c3cn4cc(C(=O)Nc5cccn([C@H]6C[C@H]6F)c5=O)c(OC(C)C)nc4n3)(CO1)C2",
    "Measurement label": "Kp uu",
    "Result": 0.1
  },
  {
    "Molecule": "CC(C)Oc1nc2nc([C@@]34CC[C@@](C)(C3)OC4)cn2cc1C(=O)Nc1cccn(C2CC2)c1=O (single isomer, unassigned)",
    "Measurement label": "Kp uu",
    "Result": 0.3
  },
  {
    "Molecule": "CC(C)Oc1nc2nc(C34CCC(C)(C3)OC4)cn2cc1C(=O)Nc1cccn([C@H]2C[C@H]2F)c1=O (single isomer, unassigned)",
    "Measurement label": "Kp uu",
    "Result": 0.2
  }
]

Each of the following entries comes with a recorded value; kindly state Kp uu for each.
1. CC(C)Oc1nc2nc(C34COC(C3)C4)cn2cc1C(=O)Nc1cccn(C2CC2)c1=O
2. COC[C@@]12CC[C@@](c3cn4cc(C(=O)Nc5cccn(C6CC6)c5=O)c(OC(C)C)nc4n3)(CO1)C2

1. 0.4
2. 0.2

====

# Assay name: Clearance in iv dosed dog
# Type: ADME, organism-based, Canis lupus familiaris
# Run parameters: in vivo
Measurement label: clearance (mL/min/kg)
Numbers only, in mL/min/kg.

The compound `CC(C)Oc1nc2nc(C34COC(C)(C3)C4)cn2cc1C(=O)Nc1cccn(C2CC2)c1=O` showed clearance equal to 12.7

====

# Assay name: AUCinfinity in rat at iv administration
# Type: ADME, organism-based
# Run parameters: in vivo
Measurement label: AUC(0-inf)
Just so you know, I need the unit written after the number.

AUC(0-inf) for `CC(C)Oc1nc2nc(C34COC(C)(C3)C4)cn2cc1C(=O)Nc1cccn(C2CC2)c1=O` is 1040 ng·h/mL

====

# Assay name: Oral bioavailability in mouse
# Type: ADME, organism-based
# Run parameters: in vivo
Measurement label: bioavailability (%)
Answers are plain numbers, in %.

Looking up `CC(C)Oc1nc2nc(C34COC(C)(C3)C4)cn2cc1C(=O)Nc1cccn(C2CC2)c1=O` , I see its bioavailability listed as 92
